- studyTarget: human MCHR1 (Homo sapiens, UniProt Q99705)
- Construct: host or cells: CHO
- Sequence (Q99705 whole entry): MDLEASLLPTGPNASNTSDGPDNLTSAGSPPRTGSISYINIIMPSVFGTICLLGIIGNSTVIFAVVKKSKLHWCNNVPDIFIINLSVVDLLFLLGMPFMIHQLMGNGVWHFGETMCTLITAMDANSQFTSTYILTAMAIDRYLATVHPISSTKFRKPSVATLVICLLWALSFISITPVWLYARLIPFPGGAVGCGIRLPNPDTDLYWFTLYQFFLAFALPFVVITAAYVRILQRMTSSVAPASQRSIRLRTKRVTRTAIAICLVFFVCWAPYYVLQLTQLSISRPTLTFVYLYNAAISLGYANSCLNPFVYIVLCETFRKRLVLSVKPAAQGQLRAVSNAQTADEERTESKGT
- assayDetails: Cyclic AMP assay (MCHR-1 functional antagonism)
- Format: cell-based
- conditionSet: CHO cells stably expressing human MCHR1; cAMP accumulation with 25 uM forskolin and 0.2 nM MCH, 90 min; Ki from IC50 by Cheng-Prusoff; read-out: MCHR-1 functional Ki
pKi: −log10 of the molar value.
quantity: pKi

| compound | quantity | reportedValue |
| --- | --- | --- |
| CCOC(=O)N[C@@H]1CCN(c2ccc(-n3ccc(OCc4ccccc4)cc3=O)cn2)C1 [Example 43] | pKi | 6.44 |
| O=c1cc(OCc2ccc(Cl)c(F)c2)ccn1-c1ccc(N2CC[C@@H](O)C2)nc1 [Example 146] | pKi | 7.22 |
| O=c1cc(OCc2ccc(F)cc2)ccn1-c1ccc(N2CCC2)nc1 [Example 90] | pKi | 7.01 |

I. N[C@H]1CCN(c2ccc(-n3ccc(OCc4ccccc4)cc3=O)cn2)C1 [Example 55]
II. O=c1cc(OCc2ccccc2)ccn1-c1ccc(N2CCC2)nc1 [Example 59]
III. O=c1cc(OCc2ccc(Cl)cc2)ccn1-c1ccc(N2C[C@@H](O)[C@@H](O)C2)nc1 [Example 101]
IV. CNC1(C)CCN(c2ccc(-n3ccc(OCc4ccccc4)cc3=O)cn2)C1 (single isomer, unassigned) [Example 18a]
V. CC(C)(C)OC(=O)N1C[C@@H]2CN(c3ccc(-n4ccc(OCc5ccccc5)cc4=O)cn3)C[C@@H]2C1 [Example 4]
# desc sort on pKi across 5 compounds Answer format: the labels, in the requested order. I, IV, III, II, V
(I: 8.44, IV: 8.05, III: 7.59, II: 7.17, V: 5.71)

The measurements presented in this section are drawn from patent US20080085884A1.
